Entry source: paper PMC5540273

- Tested on: FLT3;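 also: KINOMEscan kinase panel screen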
- protocol_conditions: concentration: 1 μM,replicates: in singlicate; n = 1
For each record, check the reported %Inh: if it is below 20% write true, else write false.

Task item: For this compound, is %Inh lower than 20%? Cc1cccc2c(-c3ccncc3)c(-c3ccc(F)cc3)nn12.Cl
Reply: true

Task item: For this compound, is %Inh lower than 20%? Cn1cc(-c2cccc3c(N)c(C(N)=O)nnc23)cn1
Reply: false

Task item: For this compound, is %Inh lower than 20%? CC(C(=O)NC1CCN(c2ccnc(Nc3ccc(F)cc3)n2)C1)c1ccc(Cl)cc1 (centres unmarked)
Reply: true

Task item: For this compound, is %Inh lower than 20%? COc1ccc(Nc2nccc(N3CCC(NC(=O)c4cccc(C#N)c4)C3)n2)cc1 (centres unmarked)
Reply: true

Task item: For this compound, is %Inh lower than 20%? O=C(Nc1ccc(Oc2ccc3nc(NC(=O)C4CC4)cn3n2)c(F)c1)c1cccn(-c2ccccc2)c1=O
Reply: false
